molecular target: HLA-A*1101 (human); experiment: competition with 125I-labelled standard probe peptide for purified HLA-A*1101, gel filtration
Value Type: binding affinity ratio (IC50 of standard peptide / IC50 of test peptide)
Give only the figure.

Worked examples follow.
I have this binder here, NSGQKKAKR (modifications not checked) [HPV18 E1 119 …] , and I need its recorded binding affinity ratio (IC50 of standard peptide / IC50 of test peptide).
0.0002

For LILALLRYK (modifications not checked) [HPV18 E1 281 …] , what is its reported binding affinity ratio (IC50 of standard peptide / IC50 of test peptide)?
0.18

Looking for the measured binding affinity ratio (IC50 of standard peptide / IC50 of test peptide) of LTTNIHPAK (modifications not checked) [HPV18 E1 571 …] , can you help?
0.12

Next, consider the following binder.
I have this binder here, NIHPAKDNR (modifications not checked) [HPV18 E1 574 …] , and I need its recorded binding affinity ratio (IC50 of standard peptide / IC50 of test peptide).
0.0002
